Values were extracted from patent US5470833A.

target: endothelin receptor (membrane of smooth muscle tissue of porcine aorta) (Sus scrofa, UniProt Q29010); construct: from tissue; host or cells: porcine aorta smooth muscle, membrane fraction; experiment: Endothelin binding inhibition test (125I-endothelin-1, porcine aorta smooth muscle membrane); details: 1.1 μM test compound (no mark); read-out: 125I-endothelin-1 binding inhibition
Sequence (Q29010 21-427): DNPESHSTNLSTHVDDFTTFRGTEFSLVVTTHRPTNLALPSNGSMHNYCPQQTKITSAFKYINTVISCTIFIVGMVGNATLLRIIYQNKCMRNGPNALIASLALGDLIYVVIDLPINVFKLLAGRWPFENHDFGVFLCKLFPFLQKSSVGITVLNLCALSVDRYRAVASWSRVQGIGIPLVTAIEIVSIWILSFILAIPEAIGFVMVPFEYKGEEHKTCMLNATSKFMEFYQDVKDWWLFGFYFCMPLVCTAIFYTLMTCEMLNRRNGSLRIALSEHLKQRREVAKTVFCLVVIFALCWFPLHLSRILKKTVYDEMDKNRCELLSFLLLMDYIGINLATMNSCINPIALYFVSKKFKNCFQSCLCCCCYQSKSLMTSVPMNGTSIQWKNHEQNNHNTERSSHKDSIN
Numbered stars: 1 amine (or outer) side, 2 acyl side, 3 side chain; on linkers, the order of the positions; unused ones are H or OH. Square brackets hold non-standard residues; d marks the D form. Peptide text beside a SMILES is read from it. * marks the point of attachment. d(β3hF) = N[C@@H](CC(=O)O)Cc1ccccc1; NMeL = CN[C@@H](CC(C)C)C(=O)O; d(β3hA) = C[C@@H](N)CC(=O)O; Boc = CC(C)(C)OC(=O)*; CO = O=C([*:1])[*:2]; NHPh = c1ccc(N*)cc1; NHtBu = CC(C)(C)N*; βAla = NCCC(=O)O
quantityName: inhibition at 1.1 µM (%)

compound="CC(C)C[C@@H](C(=O)N[C@H](Cc1c[nH]c2ccccc12)C(=O)NCCC(=O)O)N(C)C(=O)OC(C)(C)C [Compound 30] (Boc-[NMeL]-[dW]-[βAla]-OH)" observedresult=44

(P) CC(C)C[C@H](NC(=O)NC(C)(C)C)C(=O)N[C@H](Cc1c[nH]c2ccccc12)C(=O)N[C@H](Cc1c[nH]cn1)C(=O)O [Compound 82] ({NHtBu-CO}-Leu-[dW]-[dH]-OH)
(Q) CC(C)C[C@H](NC(=O)OC(C)(C)C)C(=O)N[C@H](Cc1c[nH]c2ccccc12)C(=O)NCC(=O)NCC(=O)O [Compound 23] (Boc-L[dW]GG-OH)
Between P and Q , which one shows the smaller inhibition at 1.1 µM number? Please indicate the selected item by its label.
Q

(P) CC(C)C[C@H](NC(=O)OC(C)(C)C)C(=O)N[C@H](Cc1c[nH]c2ccccc12)C(=O)NC(Cc1nccs1)C(=O)O (stereo partly drawn) [Compound 16]
(Q) CC(C)C[C@H](NC(=O)OC(C)(C)C)C(=O)N[C@H](Cc1c[nH]c2ccccc12)C(=O)N[C@@H](CC(=O)O)Cc1ccccc1 [Compound 20] (Boc-Leu-[dW]-[d(β3hF)]-OH)
Between P and Q , which one shows the smaller inhibition at 1.1 µM number? Please indicate the selected item by its label.
Q

(A) CC(C)C[C@H](NC(=O)NC(C)(C)C)C(=O)N[C@H](Cc1c[nH]c2ccccc12)C(=O)N[C@H](C)CC(=O)O [Compound 80] ({NHtBu-CO}-Leu-[dW]-[d(β3hA)]-OH)
(B) CC(C)C[C@H](NC(=O)Nc1ccccc1)C(=O)N[C@H](Cc1c[nH]c2ccccc12)C(=O)NCC(=O)O [Compound 90] ({NHPh-CO}-Leu-[dW]-Gly-OH)
// pick larger inhibition at 1.1 µM from pair: A vs B Please indicate the selected item by its label.
A
